- System: Streptococcus sp. group D X66
- TEST_DETAILS: MIC, standard agar-dilution assay
- Type: cell-based
- STUDY_CONDITIONS: Streptococcus, read-out: minimal inhibitory concentration (MIC)
EXPERIMENTAL_ENDPOINT: MIC
Please make sure the unit comes right after the number.

Some solved cases for reference:
CC[C@H]1OC(=O)[C@H](C)[C@@H](O[C@H]2C[C@@](C)(OC)[C@@H](O)[C@H](C)O2)[C@H](C)[C@@H](O[C@@H]2O[C@H](C)C[C@H](N(C)C)[C@H]2O)[C@](C)(O)C[C@@H](C)[C@H](NCCCOC)[C@H](C)[C@@H](O)[C@]1(C)O | 0.25 µg/mL
CC[C@H]1OC(=O)[C@H](C)[C@@H](O[C@H]2C[C@@](C)(OC)[C@@H](O)[C@H](C)O2)[C@H](C)[C@@H](O[C@@H]2O[C@H](C)C[C@H](N(C)C)[C@H]2O)[C@](C)(O)C[C@@H](C)[C@H](N(C)C)[C@H](C)[C@@H](O)[C@]1(C)O | 0.5 µg/mL

In the following, a different compound is considered.
// query What is its MIC for Streptococcus sp. group D X66? Entry: CC[C@H]1OC(=O)[C@H](C)[C@@H](O[C@H]2C[C@@](C)(OC)[C@@H](O)[C@H](C)O2)[C@H](C)[C@@H](O[C@@H]2O[C@H](C)C[C@H](N(C)C)[C@H]2O)[C@](C)(O)C[C@@H](C)[C@H](NCC#Cc2ccccc2)[C@H](C)[C@@H](O)[C@]1(C)O
// result 0.25 µg/mL
